Molecular target: T1, DENV-IV抗原(一种NS1蛋白，购自菲鹏) (dengue virus serotype 4 (DENV-IV), UniProt P09866 775-1126, limits assumed)
T1 construct: also called DENV-IV antigen
T1 sequence (looked up): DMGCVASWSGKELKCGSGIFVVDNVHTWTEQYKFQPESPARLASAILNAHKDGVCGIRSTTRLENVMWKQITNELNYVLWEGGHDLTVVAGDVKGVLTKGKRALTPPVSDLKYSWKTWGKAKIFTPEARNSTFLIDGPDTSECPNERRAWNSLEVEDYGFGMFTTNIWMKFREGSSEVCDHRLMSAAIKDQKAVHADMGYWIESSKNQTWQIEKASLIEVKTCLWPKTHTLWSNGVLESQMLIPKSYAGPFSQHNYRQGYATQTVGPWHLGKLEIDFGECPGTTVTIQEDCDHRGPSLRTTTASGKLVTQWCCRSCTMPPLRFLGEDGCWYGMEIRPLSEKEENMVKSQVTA
value_kind: koff (s⁻¹)

binder="DF-5M32RMb4 (antibody, mouse IgG1, kappa, V domains shown, also called DF-8F13RMb4) VH: QVQLQQSGAELARPGASVKLSCKASGYTFINYWMQWVKQRPGQGLEWIGAIYPGDGDTRYTQNFKGKAALTADKSSSTAYMQLSSLASEDSAVYYCATGTEGLLDYWGQGTSVTVSS VL: DAVMTQTPLTLSVLIGQPASLSCKSSQSLLESDGKTYLNWLFQRPGQSPKRLIYLVSKLESGVPDRFTGSGSGTEFTLKISRVEAEDLGVYYCWQATHHPLTFGTGTNLELKR" measure_unit=s⁻¹ test_value=0.00176
binder="DF-5M32RMb2 (antibody, mouse IgG1, kappa, V domains shown, also called DF-8F13RMb2) VH: QVQLQQSGAELARPGASVKLSCKASGYTFLNYWMQWVKQRPGQGLEWIGAIYPGDGDTRYTQNFKGKAALTADKSSSTAYMQLSSLASEDSAVYYCATGTEGLLDYWGQGTSVTVSS VL: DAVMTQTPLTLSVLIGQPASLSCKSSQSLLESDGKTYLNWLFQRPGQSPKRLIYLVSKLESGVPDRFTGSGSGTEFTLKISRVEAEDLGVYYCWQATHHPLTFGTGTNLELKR" measure_unit=s⁻¹ test_value=0.00184
binder="DF-5M32RMb1 (antibody, mouse IgG1, kappa, V domains shown, also called Anti-DF 5M32; Anti-DF 5M32单克隆抗体 (recombinant)) VH: QVQLQQSGAELARPGASVKLSCKASGYTFINYWMQWVKQRPGQGLEWIGAIYPGDGDTRYTQNFKGKAALTADKSSSTAYMQLSSLASEDSAVYYCATGTEGILDYWGQGTSVTVSS VL: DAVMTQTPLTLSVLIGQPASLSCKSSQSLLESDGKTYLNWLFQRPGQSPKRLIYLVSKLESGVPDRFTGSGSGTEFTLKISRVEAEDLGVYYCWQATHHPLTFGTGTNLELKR" measure_unit=s⁻¹ test_value=0.00128
binder="DF-5M32RMb3 (antibody, mouse IgG1, kappa, V domains shown, also called DF-8F13RMb3) VH: QVQLQQSGAELARPGASVKLSCKASGYTFLNYWMQWVKQRPGQGLEWIGAIYPGDGDTRYTQNFKGKAALTADKSSSTAYMQLSSLASEDSAVYYCATGTEGILDYWGQGTSVTVSS VL: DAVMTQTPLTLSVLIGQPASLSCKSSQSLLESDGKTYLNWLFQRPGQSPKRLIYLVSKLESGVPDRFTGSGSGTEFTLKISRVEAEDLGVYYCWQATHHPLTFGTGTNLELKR" measure_unit=s⁻¹ test_value=0.00186
